IC50 values for ROCK2 (Homo sapiens), compiled from several publications.
attribute_measured: IC50 (nM)

                                    compound  unit_text  qualifier_operator  value_reported
 0  NC(=O)c1cccnc1O[C@H]1C[C@]2(C1)C[C@H](N1C(=O)NC(CC3CCCO3)C1=O)C2 (single isomer, unassigned)         nM                   =             212
 1  NC(=O)c1cccnc1Oc1ccc(CC(=O)Nc2nc3ccc(C(F)(F)F)cc3n2CC2CC2)cc1Cl         nM                   =              16
 2  COc1cccc(CN2C(=O)N(c3ccc(-c4cn[nH]c4)c(OC)n3)CC23CCN(C(=O)CN(C)C)CC3)c1         nM                   <               3
 3  NC(=O)c1cccnc1Oc1ccc(CC(=O)Nc2nc3ccccc3n2Cc2ccccc2)cc1Cl         nM                   =             181
 4  O=C(C1CC(F)(F)C1)N1Cc2ccc(-c3ncnc(Nc4ccc(-c5cn[nH]c5)cc4)n3)cc2C1         nM                   =             105
 5  O=C(NCC(c1ccccc1)c1ccccc1)Nc1ccc2c(c1)OCc1cnccc1-2         nM                   =             910
 6  COc1cc(C(=O)NCc2cccc(CN(C)C)c2)ccc1-c1cn[nH]c1         nM                   =             474
 7  Cn1ncc2cc(C(N)=O)c(O[C@H]3C[C@@]4(C[C@H](NC(=O)c5cnc6ccc(F)cc6c5)C4)C3)nc21 (stereo partly drawn)         nM                   =               5
 8  O=C(NC1CC1)c1cccc([C@@H](CO)NC(=O)c2ccc(-c3ccncc3)cc2)c1         nM                   =             1.8
 9  COc1ccc2c(c1)CCc1sc(NC(=O)C(C)c3ccc(Oc4ncccc4C(N)=O)cc3)nc1-2 (stereo not drawn)         nM                   =             262
10  COc1cc(N2CCC3(CCN(C(=O)c4ncc(Br)cn4)CC3)C2=O)ccc1-c1cn[nH]c1         nM                   =              88
11  CP(C)(=O)c1ccc2nc(NC(=O)Cc3ccc(Oc4ncccc4C(N)=O)c(F)c3)cn2c1         nM                   =            1230
12  CN(C)CCOc1cc(C(=O)NCc2ccccc2Cl)ccc1-c1cn[nH]c1         nM                   =             844

----------
IC50 values for ROCK2 (Homo sapiens), compiled from several publications.
In plain terms, low IC50, meaning strictly below 90 nM, gives MET, and everything else gives NOT MET.

>>> print(df.to_string())
                                    molecule  assigned_class
 0  CN(C)C(=O)c1cc2ccc(-c3nccc(Nc4ccc5[nH]ncc5c4)n3)cc2[nH]1         NOT MET
 1  CN1CCN(c2ccc(C(=O)N3CCC4(CC3)CCN(c3ccc(-c5cn[nH]c5)cc3)C4=O)cc2)CC1             MET
 2  CCNC(=O)c1cc2cc(-c3nccc(Nc4ccc(-c5cn[nH]c5)cc4)n3)ccc2[nH]1         NOT MET
 3  COc1ccc2c(c1)CCc1sc(NC(=O)Cc3ccc(Oc4ncccc4C(N)=O)cc3)nc1-2             MET
 4  COc1cc(N2CCC3(CCN(C(=O)c4ccc5c(c4)OCO5)CC3)C2=O)ccc1-c1cn[nH]c1         NOT MET
 5  COc1cc(F)cc(CN2CCN(c3ccc(-c4cn[nH]c4)cc3)C2=O)c1             MET
 6  O=C(Cc1ccccc1Cl)Nc1ccc(-c2cn[nH]c2)cc1OCCN1CCCC1             MET
 7  O=C(NCC1CC1)c1cccc(CNC(=O)N2CCc3cc(-c4cn[nH]c4)c(F)cc32)c1             MET
 8  CN(C)C1CCC(NC(=O)c2cccc([C@@H](CO)NC(=O)c3ccc(-c4ccncc4)cc3)c2)CC1 (stereo partly shown)             MET
 9  COC(=O)C(Cc1c[nH]cn1)NC(=O)c1cc2ccc(-c3nccc(Nc4ccc5[nH]ncc5c4)n3)cc2[nH]1 (stereo not shown)         NOT MET
10  O=C(Nc1ccncc1Cl)c1cc2ccc(-c3nccc(Nc4ccc(-c5cn[nH]c5)cc4)n3)cc2[nH]1         NOT MET
11  NC(=O)c1cccnc1O[C@H]1C[C@@]2(C[C@H](Nc3ncnc4cc(Cl)ccc34)C2)C1 (stereo partly shown)         NOT MET
